# MEASURED ON: Glycylpeptide N-tetradecanoyltransferase (Plasmodium falciparum (isolate 3D7))
# Sequence (Q8ILW6 whole entry, the tested form may be a part): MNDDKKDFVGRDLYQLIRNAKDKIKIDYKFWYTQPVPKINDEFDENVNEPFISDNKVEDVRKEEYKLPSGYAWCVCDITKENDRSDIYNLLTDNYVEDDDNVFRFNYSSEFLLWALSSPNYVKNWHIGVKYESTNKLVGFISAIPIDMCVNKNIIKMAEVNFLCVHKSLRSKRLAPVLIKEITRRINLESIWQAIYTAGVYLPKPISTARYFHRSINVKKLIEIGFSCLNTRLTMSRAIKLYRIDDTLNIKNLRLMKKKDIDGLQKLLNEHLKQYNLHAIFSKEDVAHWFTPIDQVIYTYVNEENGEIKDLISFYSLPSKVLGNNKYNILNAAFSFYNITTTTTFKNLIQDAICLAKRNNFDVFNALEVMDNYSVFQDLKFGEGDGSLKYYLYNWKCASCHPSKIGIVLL
# ASSAY PROCEDURE: Inhibition of Plasmodium falciparum NMT preincubated for 10 to 20 mins followed by Hs pp60src (2 to 16 residues) substrate addition measured after 60 mins by CPM-based fluorescence assay
# MEASUREMENT CONDITIONS: read-out: Ki(app)
Parameter: Ki. Scope: all listed entries.

Some entries whose results are on file:
chem_smiles=CCOC(=O)c1cnc2ccc(OCc3ccccc3)cc2c1SCCC#N readout_value="> 10 µM"
chem_smiles=CCOC(=O)c1cnc2ccc(OCc3ccccc3)cc2c1S(=O)(=O)CC readout_value="> 10 µM"

Ask | Any idea what its Ki is? The compound is `CCSc1c(CO)cnc2ccc(OCc3ccccc3)cc12`
Reply | > 10 µM
